Biological target: T1, VEGF-A165 (Homo sapiens)
T1 chain: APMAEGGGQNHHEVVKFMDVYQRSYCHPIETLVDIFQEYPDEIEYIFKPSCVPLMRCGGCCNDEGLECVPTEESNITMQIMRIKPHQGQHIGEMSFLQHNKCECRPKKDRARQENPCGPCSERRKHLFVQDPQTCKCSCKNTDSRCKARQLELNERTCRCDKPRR
Assay: SPR; HEPES pH 7.4, 137.5 mM NaCl, 1 mM MgCl2, 1 mM CaCl2
Conditions: tags: glycan-biotinylated for SPR/FRET/AlphaLISA; Acro BioSystems, R&D Systems; chain copies: 2 (inferred); stem-loop
measureName: Kd
Note: a bare number is incomplete; add the unit.

Per the records, this binder ( UAGGCCGCCUCCGCGCGGAGGGGUUUCAUUAUCCCGUUUGGCGGCUUU (ssRNA, all G 2'-F; all A,C,U 2'-OMe; 5' C6NH2; 3' idT (Tables 14-16 print it without the terminal U residues)) [Aptamer 26] ) has Kd equal to 500 pM

The reported numbers originate from patent US20220098591.
